Values from PubChem BioAssay

test: binders of probe aFGF2 on microarray, primary screen, stem cell growth factor project, biochemical, small-molecule microarray, fluorescence 635/667 (AID 1067); settings: higher = more signal;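 further: measures binding of biotinylated aFGF2 protein to printed compounds on slides; z-score merges feature fluorescence and signal-to-noise across triplicate slides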
Attribute Measured: composite z-score
One number for each entry.

Answered cases to consult:
Chemical String	Numeric Value
C=CCOC(=O)[C@H]1[C@@H]2C(=O)O[C@@H](c3ccccc3)[C@@H](c3ccccc3)N2[C@@H](c2ccc(OCCOC(=O)[C@H]3C[C@H]4C(=O)N[C@@H](CCCCNC(C)=O)C(=O)N4[C@H]3c3ccc(O)cc3)cc2)[C@]12C(=O)Nc1ccccc12	-0.0736
COCCOC(=O)N1C(=O)[C@@]2(c3cc(C#CCCO)ccc31)[C@H](c1ccccc1OCCO)N1[C@H](c3ccccc3)[C@H](c3ccccc3)OC(=O)[C@H]1[C@@H]2C(=O)Nc1nc2ccccc2s1	-0.0066

Would you mind giving composite z-score for every molecule in the list below?
1. O=C1O[C@@H](c2ccccc2)[C@@H](c2ccccc2)N2[C@@H](c3ccc(O)cc3)[C@]3(C(=O)Nc4ccc(C#CC5(O)CCCCCC5)cc43)[C@@H](C(=O)NC[C@H](O)c3ccccc3)[C@H]12
2. COC(=O)[C@@]1(Cc2ccccc2)[C@H]2c3cc(C(=O)N(C)C)n(Cc4c(CO)[nH]cc(C)c4=O)c3C[C@H]2CN1C(=O)c1ccccc1
3. COC(=O)[C@H](Cc1ccccc1)N1CC(/C=C/C2CC2)=C[C@H]1[C@H](O)Cc1ccccc1

Result ::
-0.0255
0.206
-0.104
